System: Ramos B-Cell Line Stimulated with IL-4 (JAK-1 and JAK-3 / Stat-6, CD23)
Assay: Assay for Ramos B-Cell Line Stimulated with IL-4 (CD23 upregulation, FACS)
Assay type: cell-based
Settings: human Ramos B cells, compound 1 hour, IL-4 50 units/mL for 20-24 hours, anti-CD23-PE FACS; read-out: Example 2 (IC50)
observation-type: pIC50
Just so you know, pIC50 here is -log10 of the concentration in molar units; reply with that number alone.

Item Cc1cc(COc2ccc(Nc3nc(Nc4ccc(CC#N)cc4)ncc3F)cc2)no1 : provide pIC50 6.46

Item CNC(=O)COc1cccc(Nc2ncc(F)c(Nc3ccc4c(c3)N(Cc3ccc(OC)cc3)C(=O)C(C)S4)n2)c1 (racemic) : provide pIC50 6.03

Item CCN(CC)CCNC(=O)c1ccc(Nc2ncc(F)c(Nc3ccc(OCc4ccccn4)cc3)n2)cc1 : provide pIC50 7.25

Item CNC(=O)COc1cc(Nc2ncc(F)c(Nc3ccc4c(c3)NC(=O)C(C)(C)O4)n2)cc(OC)c1OC : provide pIC50 7.60
